Tested on: NOMO1
Assay: cell viability relative to DMSO control; higher = less cytotoxic
Conditions: RPMI 5 mM glucose + 10% FBS; 48 h; 0.0632 µM
Consider the following compounds and their measured cell viability readings.

- Compound: "NC1=NC=C(C=C1)C2=CC=C3N=CC\\4=C(N(C(=O)\\C=C4)C5=CC(=CC=C5)C(F)(F)F)C3=C2"
  cell viability, %: 55
- Compound: "CC[C@H]1/C=C\\C=C/C[C@@H](C)[C@H](O)[C@@](C)(O)C(=O)[C@@H](C)[C@H](O)[C@@H](C)C(=O)[C@@H](C)[C@H](O)[C@@H](C)/C=C/C(=O)O[C@@H]2[C@H](C)[C@H](CC1)O[C@]1(CC[C@H](C)[C@H](C[C@@H](C)O)O1)[C@H]2C"
  cell viability, %: 82.7
- Compound: "C\\C1=C\\N([C@H]2C[C@H](N=[N+]=[N-])[C@@H](CO)O2)C(=O)NC1=O"
  cell viability, %: 96.7
- Compound: "CCC1(c2ccc(N)cc2)CCC(=O)NC1=O (stereo unspecified)"
  cell viability, %: 102
- Compound: "O=C1C[C@@H](c2ccc(O)cc2)Oc2cc(O)cc(O)c21"
  cell viability, %: 126
- Compound: "Cc1ncc(OC[C@@]2(c3cccc(F)c3)C[C@H]2C(=O)Nc2ccc(F)cn2)c(C)n1"
  cell viability, %: 105
- Compound: "CNC1[C@@H](O)C(O[C@@H]2C(O)C(O[C@H]3O[C@H]([C@@H](C)NC)CC[C@H]3N)[C@@H](N)C[C@H]2N)OC[C@]1(C)O (stereo partly specified)"
  cell viability, %: 91.3
- Compound: "CN(C)C(=O)c1ccc([S+](=O)([O-])c2ccc(NC(=O)[C@@](C)(O)C(F)(F)F)c(Cl)c2)cc1"
  cell viability, %: 114
- Compound: "CN1\\C(=C(\\O)C2=C(C=CS2)[S+]1([O-])=O)C(=O)NC3=CC=CC=N3"
  cell viability, %: 113
- Compound: "O=C(CO)N1CCC(c2n[nH]c(-c3ccc(Cl)cc3)c2-c2ccncn2)CC1"
  cell viability, %: 121
- Compound: "CC(C)C[C@H](NC(=O)[C@@H](NC(=O)c1cccc(-c2ccccc2)n1)[C@@H](C)O)B(O)O"
  cell viability, %: 66.2
- Compound: "O=C1Nc2ccc(Cl)cc2[C@@](C#CC2CC2)(C(F)(F)F)O1"
  cell viability, %: 88.7
- Compound: "Cn1c(Nc2ccc(C(F)(F)F)cc2)nc2cc(Oc3ccnc(-c4nc(C(F)(F)F)c[nH]4)c3)ccc21"
  cell viability, %: 130
- Compound: "O=C1\\C=C/C[C@@H]2[C@H]3CCCN4CCC[C@@H](CN12)[C@@H]34"
  cell viability, %: 95.4
- Compound: "CCc1c(C(=O)C(N)=O)c2c(OCC(=O)O)cccc2n1Cc1ccccc1"
  cell viability, %: 104
- Compound: "CC(C)Oc1cc(Nc2nc(N[C@@H](C)c3ccc(F)cn3)ncc2Cl)n[nH]1"
  cell viability, %: 104
